For each record, write down the corresponding IC50.
- Tested on: human renal tubular epithelial cells HK-2
- PROTOCOL_SUMMARY: MTT proliferation inhibition / toxicity, HK-2
- Format: cell-based
- CONDITION_DETAILS: Homo sapiens; HK-2 cells, MTT, 48 h; read-out: Inhibitory activity (IC50) against proliferation, HK-2
- Experimental: The anti-tumor activity of the compounds of the present invention was determined by the method of methyl thiazolyl tetrazolium (MTT), Bardoxolone Methyl (CDDO-Me) being selected as a positive control medicament. […] Methods: the cryopreserved cell strains were resuscitated and cultured in a CO2 incubator at a constant temperature of 37° C. with liquid being changed once daily. […] The amount of required cell suspension was calculated on the basis of 5×10^4 cells per well and the total number of wells. […]
Form entry: enter the amount, then its unit.

q: Please supply the value of reported IC50 for the item CC1(C)CC[C@]2(NC(=O)/C=C/c3ccccc3)CC[C@]3(C)[C@H](C(=O)C=C4[C@@]5(C)C=C(C#N)C(=O)C(C)(C)[C@@H]5CC[C@]43C)[C@@H]2C1
a: 799 nM

q: Please supply the value of reported IC50 for the item CC1(C)CC[C@]2(NC(=O)/C=C/c3ccc(Cl)cc3)CC[C@]3(C)[C@H](C(=O)C=C4[C@@]5(C)C=C(C#N)C(=O)C(C)(C)[C@@H]5CC[C@]43C)[C@@H]2C1
a: 727 nM

q: Please supply the value of reported IC50 for the item COc1ccc(/C=C(\C#N)C(=O)N[C@]23CCC(C)(C)C[C@H]2[C@H]2C(=O)C=C4[C@@]5(C)C=C(C#N)C(=O)C(C)(C)[C@@H]5CC[C@@]4(C)[C@]2(C)CC3)cc1
a: 748 nM

----------
- System: M-MDSC, PMN-MDSC
- PROTOCOL_SUMMARY: Spleen M-MDSC / PMN-MDSC by flow cytometry in S180 tumor-bearing mice
- Type: in vivo, ICR mice
- CONDITION_DETAILS: 15 mg/kg intragastric, 7 days, CD11b+LY6Chi+
QUANTITY_KIND: M-MDSC (%)
Report the value in % with no unit label.

q: Recall the reported M-MDSC of COC(=O)[C@]12CCC(C)(C)C[C@H]1[C@H]1C(=O)C=C3[C@@]4(C)C=C(C#N)C(=O)C(C)(C)[C@@H]4CC[C@@]3(C)[C@]1(C)CC2 [CDDO-Me, reference compound] when tested on M-MDSC, PMN-MDSC.
a: 1.15

q: Recall the reported M-MDSC of CC1(C)CC[C@]2(NC(=O)/C(C#N)=C/c3ccc(Cl)cc3)CC[C@]3(C)[C@H](C(=O)C=C4[C@@]5(C)C=C(C#N)C(=O)C(C)(C)[C@@H]5CC[C@]43C)[C@@H]2C1 when tested on M-MDSC, PMN-MDSC.
a: 0.38

q: Recall the reported M-MDSC of CC1(C)CC[C@]2(NC(=O)/C(C#N)=C/c3ccccc3)CC[C@]3(C)[C@H](C(=O)C=C4[C@@]5(C)C=C(C#N)C(=O)C(C)(C)[C@@H]5CC[C@]43C)[C@@H]2C1 when tested on M-MDSC, PMN-MDSC.
a: 0.59

q: Recall the reported M-MDSC of CC1(C)CC[C@]2(NC(=O)/C=C(\C#N)c3ccc(C(F)(F)F)cc3)CC[C@]3(C)[C@H](C(=O)C=C4[C@@]5(C)C=C(C#N)C(=O)C(C)(C)[C@@H]5CC[C@]43C)[C@@H]2C1 when tested on M-MDSC, PMN-MDSC.
a: 0.40

----------
For each record, write down the corresponding pIC50.
- System: rat embryonic cardiomyocytes H9C2
- PROTOCOL_SUMMARY: MTT proliferation inhibition / toxicity, H9C2
- Type: cell-based
- CONDITION_DETAILS: Rattus norvegicus, H9c2, 48 h, H9C2 cardiomyocytes, MTT, 48 h; read-out: Inhibitory activity (IC50) against proliferation, H9C2
The scale used: pIC50 is minus the common logarithm of the concentration in molar units.

q: Please supply the value of reported pIC50 for the item CC1(C)CC[C@]2(NC(=O)/C=C(\C#N)c3ccccc3)CC[C@]3(C)[C@H](C(=O)C=C4[C@@]5(C)C=C(C#N)C(=O)C(C)(C)[C@@H]5CC[C@]43C)[C@@H]2C1
a: 8.15

q: Please supply the value of reported pIC50 for the item CC1(C)CC[C@]2(NC(=O)/C(C#N)=C/c3ccccc3)CC[C@]3(C)[C@H](C(=O)C=C4[C@@]5(C)C=C(C#N)C(=O)C(C)(C)[C@@H]5CC[C@]43C)[C@@H]2C1
a: 5.50
